# pKd listing for each entry below
target: feline FcRn complex (FcRn-α subunit and β-microglobulin), biotin labeled (feline); assay: SPR, pH 7.4
Expect pKd as a plain number equal to -log10 of the molar concentration.

1. feline IgG1a S254P (antibody, part only; not given: Variable domains, not shown: another chain or arm of the molecule) constant: ASTTAPSVFPLAPSCGTTSGATVALACLVLGYFPEPVTVSWNSGALTSGVHTFPAVLQASGLYSLSSMVTVPSSRWLSDTFTCNVAHPPSNTKVDKTVRKTDHPPGPKPCDCPKCPPPEMLGGPSIFIFPPKPKDTLSIPRTPEVTCLVVDLGPDDSDVQITWFVDNTQVYTAKTSPREEQFNSTYRVVSVLPILHQDWLKGKEFKCKVNSKSLPSPIERTISKAKGQPHEPQVYVLPPAQEELSRNKVSVTCLIKSFHPPDIAVEWEITGQPEPENNYRTTPPQLDSDGTYFVYSKLSVDRSHWQRGNTYTCSVSHEALHSHHTQKSLTQSPGK    5.24

pKd for feline IgG1a S252Y/S428M/Q311W (antibody, part only; not given: Variable domains, not shown: another chain or arm of the molecule) constant: ASTTAPSVFPLAPSCGTTSGATVALACLVLGYFPEPVTVSWNSGALTSGVHTFPAVLQASGLYSLSSMVTVPSSRWLSDTFTCNVAHPPSNTKVDKTVRKTDHPPGPKPCDCPKCPPPEMLGGPSIFIFPPKPKDTLYISRTPEVTCLVVDLGPDDSDVQITWFVDNTQVYTAKTSPREEQFNSTYRVVSVLPILHWDWLKGKEFKCKVNSKSLPSPIERTISKAKGQPHEPQVYVLPPAQEELSRNKVSVTCLIKSFHPPDIAVEWEITGQPEPENNYRTTPPQLDSDGTYFVYSKLSVDRSHWQRGNTYTCSVMHEALHSHHTQKSLTQSPGK is 7.73
